Recorded values, source paper PMC12155096.

Measured IC50 by item
Target: human CYP2C9 (Homo sapiens, UniProt P11712)
Sequence (P11712 whole entry): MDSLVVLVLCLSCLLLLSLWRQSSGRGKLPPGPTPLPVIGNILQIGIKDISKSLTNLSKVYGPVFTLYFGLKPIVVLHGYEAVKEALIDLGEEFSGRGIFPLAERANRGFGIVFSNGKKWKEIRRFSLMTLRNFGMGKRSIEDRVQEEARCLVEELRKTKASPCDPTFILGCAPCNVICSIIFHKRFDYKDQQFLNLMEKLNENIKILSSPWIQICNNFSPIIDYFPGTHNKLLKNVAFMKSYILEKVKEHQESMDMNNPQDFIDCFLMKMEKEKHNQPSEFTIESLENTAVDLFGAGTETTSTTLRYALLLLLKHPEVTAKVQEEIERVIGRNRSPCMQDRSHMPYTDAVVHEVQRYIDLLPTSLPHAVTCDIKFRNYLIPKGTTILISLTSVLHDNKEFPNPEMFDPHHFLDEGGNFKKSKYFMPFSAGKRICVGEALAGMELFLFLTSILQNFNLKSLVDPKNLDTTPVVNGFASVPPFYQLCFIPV
Assay: biochemical
Conditions: CYP2C9 IC50 (half-maximal inhibitory concentration)
Structures can show the parent of a compound that is named as a salt.

| molecule | unitsLabel | IC50 |
| --- | --- | --- |
| CCC1COC(Cn2cncn2)(c2ccc(Cl)cc2Cl)O1 (stereo not drawn) [Etaconazole] | µM | 5.71 |
| CCOC(=O)C1=C(C)NC(C)=C(C(=O)OC)C1c1cccc([N+](=O)[O-])c1 (stereo not drawn) [Nitrendipine] | µM | 0.88 |
| CNC(=O)Oc1ccc2c(c1)[C@]1(C)CCN(C)[C@@H]1N2C [Physostigmine] | µM | 80 |
| Brc1c2ccccc2cc2ccccc12 [9-Bromoanthracene] | µM | 34.6 |
| CC(Cc1cccc(C(F)(F)F)c1)NCCOC(=O)c1ccccc1 (stereo not drawn) [Benfluorex hydrochloride] | µM | 25.3 |
| O=S(=O)(c1ccc(Cl)cc1)c1ccc(Cl)cc1 [4,4'-Dichlorodiphenyl sulfone] | µM | 31.4 |
| C#CCOS(=O)OC1CCCCC1Oc1ccc(C(C)(C)C)cc1 (stereo not drawn) [Propargite] | µM | 0.49 |
| Cl[C@H]1[C@H](Cl)[C@@H](Cl)[C@H](Cl)[C@@H](Cl)[C@H]1Cl [delta-Hexachlorocyclohexane] | µM | 25.6 |
| c1ccc2c(c1)-c1ccc3ccc4cccc5cc-2c1c3c45 [Indeno(1,2,3-cd)pyrene] | µM | 5.5 |
